Data origin: ChEMBL document CHEMBL1681782

# test.description: Antiinflammatory activity in human neutrophils assessed as inhibition of fMLP/CB-induced superoxide anion generation after 5 mins
# Assay type: functional, cell-based
# condition.summary: Neutrophil
IC50 values, listed per item

In the examples that follow, each entry is paired with its recorded IC50.
compound: O=C1Nc2cc3ccc(O)cc3c3c4c(cc1c23)OCO4
IC50: 0.12 µg/mL
//
compound: COc1cccc2c1ccc1c(C(N)=O)cc3c(c12)OCO3 [ARISTOLAMIDE]
IC50: > 10 µg/mL
//
compound: COC(=O)c1cc2c(c3c1ccc1c(OC)cc(OC)cc13)OCO2
IC50: > 10 µg/mL
//
compound: COC(=O)c1cc2c(c3c1ccc1c(OC)cccc13)OCO2 [METHYL ARISTOLATE]
IC50: > 10 µg/mL

Now consider a different compound.
Give the measured IC50 of COc1cccc2c1cc([N+](=O)[O-])c1c(C(=O)O)cc3c(c12)OCO3 .
> 10 µg/mL

----------
IC50 overview
# test.description: Antiinflammatory activity in human neutrophils assessed as inhibition of fMLP/CB-induced superoxide anion generation after 5 mins
# Assay type: functional, cell-based
# condition.summary: Neutrophil

Sample records with IC50:
molecule: O=C(O)c1cc2c(c3c1c([N+](=O)[O-])cc1ccc(O)cc13)OCO2 [ARISTOLOCHIC ACID C]
measure: IC50
reported: > 10 µg/mL

molecule: NC(=O)c1cc2c(c3c1ccc1ccccc13)OCO2 [ARISTOLAMIDE II]
measure: IC50
reported: > 10 µg/mL

Please look at the following molecule next.
Tell me the measured IC50 of COC(=O)c1cc2c(c3c1c([N+](=O)[O-])cc1c(OC)cccc13)OCO2 , please.
> 10 µg/mL
